system: HAdV5-GFP; experiment: Plaque assay (inhibition of HAdV plaque formation); type: cell-based, HAdV-5; conditions: read-out: Plaque Assay (%) Inhibition (10 μM)
Counter-ions that a name gives are not always drawn.
Listed below: inhibition at 10 µM values for each entry.
Give the quantity in %, number only.

Here's what some known entries look like.
1. CN(C)c1ccc(CNc2ccc(NC(=O)c3cc(Cl)ccc3O)c(Cl)c2)cc1    100
2. O=C(Nc1ccc(NC2CCCC2)c(Cl)c1)c1cc(Cl)ccc1O    100
3. O=C(Nc1ccc(NCc2cccc(C(F)(F)F)c2)cc1Cl)c1cc(Cl)ccc1O    100
4. CC(C)(C)OC(=O)CC[C@H](NC(=O)c1cc(Cl)ccc1O)C(=O)Nc1ccc([N+](=O)[O-])cc1Cl    97.3
5. O=C(NCc1ccc(F)cc1)c1cc(Cl)ccc1O    72
6. CC(C)CNc1ccc(NC(=O)c2cc(Cl)ccc2O)c(Cl)c1    100
7. Cc1ccc(O)c(C(=O)Nc2cc(F)cc(C(F)(F)F)c2)c1    98
8. NCCNc1ccc(NC(=O)c2cc(Cl)ccc2O)c(Cl)c1 [Compound 123, hydrochloride]    19.4

Suppose we examine the compound O=C(Nc1ccc(NCCCO)cc1Cl)c1cc(Cl)ccc1O ; what inhibition at 10 µM value has been reported?
36

Cool, now O=C(Nc1ccc(NC2CCCC2)cc1)c1cc(Cl)ccc1O
99.8

Cool, now O=C(Nc1ccc(NCC2CC2)cc1Cl)c1cc(Cl)ccc1O
100

Cool, now O=C(Nc1ccc(N(CC2CC2)CC2CC2)cc1Cl)c1cc(Cl)ccc1O
100

Cool, now C[C@@H](NC(=O)c1cc(Cl)ccc1O)c1ccc(Cl)cc1
100

Cool, now C[C@@H](NC(=O)c1cc(Cl)ccc1O)c1ccc(F)cc1
100

Cool, now O=C(NCCN1CCOCC1)c1cc(Cl)ccc1O
0

Cool, now O=C(Nc1ccc(F)c(F)c1)c1cc(Cl)ccc1O
100

Cool, now C[C@H](NC(=O)c1cc(Cl)ccc1O)C1CCCCC1
100

Cool, now O=C(Nc1ccc(NCc2ccc(O)nc2)cc1Cl)c1cc(Cl)ccc1O
100

Cool, now O=C(Nc1ccc(N(CCCO)CCCO)cc1Cl)c1cc(Cl)ccc1O
35
